System: transglutaminase (TGase I)
Assay: Transglutaminase (Tgase) ELISA assay in cultured keratinocytes with retinol and boosters
Assay type: cell-based, human
Conditions: IC20 (80% of control), compound tested individually in the presence of 10^-7 M retinol
Binary call on IC20 with cut-off 60 µM: strictly below means yes (1), and equality or higher means no (0).

CC1(C)[C@@H](OC(=O)CCC(=O)O)CC[C@]2(C)[C@H]3C(=O)C=C4[C@@H]5C[C@@](C)(C(=O)O)CC[C@]5(C)CC[C@@]4(C)[C@]3(C)CC[C@@H]12 [Carbenoxolone, reference compound]
yes (1)
CC(C)CCCCCCCCCCCCCCC(=O)O [Isostearic Acid]
no (0)
CCCCC/C=C\C/C=C\CCCCCCCC(=O)O [Linoleic Acid]
no (0)
CCCCCCCC/C=C\CCCCCCCC1=NCCN1CCO [Oleyl Hydroxyethylimidazoline]
yes (1)
